TEST_TARGET: Fes (UniProt P07332)
Sequence (P07332 whole entry, looked up): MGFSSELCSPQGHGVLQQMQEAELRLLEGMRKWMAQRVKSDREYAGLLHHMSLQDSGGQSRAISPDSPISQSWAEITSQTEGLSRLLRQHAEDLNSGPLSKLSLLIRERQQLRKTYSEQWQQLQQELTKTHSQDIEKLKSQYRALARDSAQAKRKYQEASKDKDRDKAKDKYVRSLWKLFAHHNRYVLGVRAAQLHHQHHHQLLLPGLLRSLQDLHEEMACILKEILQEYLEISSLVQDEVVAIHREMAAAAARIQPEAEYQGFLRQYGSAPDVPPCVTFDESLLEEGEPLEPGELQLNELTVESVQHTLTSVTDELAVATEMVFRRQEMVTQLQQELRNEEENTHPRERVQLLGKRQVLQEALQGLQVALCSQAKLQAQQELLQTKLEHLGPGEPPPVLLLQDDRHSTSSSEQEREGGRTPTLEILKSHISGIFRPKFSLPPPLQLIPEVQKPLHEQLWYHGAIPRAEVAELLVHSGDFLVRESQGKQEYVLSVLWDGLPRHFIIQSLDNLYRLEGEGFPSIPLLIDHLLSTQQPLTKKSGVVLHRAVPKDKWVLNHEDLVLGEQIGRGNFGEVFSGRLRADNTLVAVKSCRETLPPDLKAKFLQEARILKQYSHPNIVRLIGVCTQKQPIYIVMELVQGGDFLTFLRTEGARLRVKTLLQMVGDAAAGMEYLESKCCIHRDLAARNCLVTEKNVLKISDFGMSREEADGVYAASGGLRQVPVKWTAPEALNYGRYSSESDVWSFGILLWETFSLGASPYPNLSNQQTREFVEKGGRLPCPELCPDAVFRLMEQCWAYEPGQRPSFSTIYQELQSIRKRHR
ASSAY_TEXT: phosphorylation enrichment, bacterial display (enrichment ratio); higher = better substrate or ligand; peptides without Tyr show the background;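 further: 11-residue human phosphosite peptides and single-mutation variants displayed on the E. coli surface, counted by deep sequencing, each peptide's frequency after selection divided by its frequency in the unselected input library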;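 further: frequency after pTyr selection over input frequency; kinase dosed for 20-30% of maximal phosphorylation in three min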
I would appreciate it if you labelled entries TRUE when phosphorylation enrichment is 1 or higher, otherwise FALSE.

SEQUENCE_CONTENT	ASSIGNED_CATEGORY
VVHSSYDEIEG [SEC24A_Y263]	TRUE
VNFGAYINDFN [GLB1_Y488_K493N_YF]	TRUE
AVSEGYKDFRA [CDA_Y79]	FALSE
ADARMYGVLPW [PLP1_Y207]	FALSE
IYLGAYDRFLP [SLC22A5_Y486_V481I]	TRUE

API: above_or_equal(metric=phosphorylation enrichment, cutoff=1) for item RRETPYGGGGG [FUS_Y526_R524T]
FALSE

API: above_or_equal(metric=phosphorylation enrichment, cutoff=1) for item IGEGTYRQVYK [CDK13_Y716_G717R]
FALSE

API: above_or_equal(metric=phosphorylation enrichment, cutoff=1) for item TEFSQYMRRKN [MAX_Y73_I71S_YF]
FALSE

API: above_or_equal(metric=phosphorylation enrichment, cutoff=1) for item NQLNDYIFSFD [RARS1_Y516_R512Q]
TRUE
